Assay: activity coefficient (dimensionless); of the first substance listed, at infinite dilution; xn = mol fraction of the nth substance listed
Conditions: 323.15 K; 100 kPa; Liquid; Chromatography; x1 = 0
Classification field: satisfied = activity coefficient at or over 0.9; not satisfied = activity coefficient under 0.9.

> print(dat)
                                   compound  assigned.label
1  CC(C)O [propan-2-ol] + CCCC[N+]1(C)CCCC1.N#CN=C=[N-]   not satisfied
2  c1ccsc1 [thiophene] + CCCC[N+]1(C)CCCC1.N#CN=C=[N-]   not satisfied
3  C=CCCCCCCCC [1-decene] + CCCC[N+]1(C)CCCC1.N#CN=C=[N-]       satisfied
4  CCc1ccccc1 [ethylbenzene] + CCCC[N+]1(C)CCCC1.N#CN=C=[N-]       satisfied
5  CCCO [propan-1-ol] + CCCC[N+]1(C)CCCC1.N#CN=C=[N-]   not satisfied
6  C1=CCCCC1 [cyclohexene] + CCCC[N+]1(C)CCCC1.N#CN=C=[N-]       satisfied
7  CCCCO [butan-1-ol] + CCCC[N+]1(C)CCCC1.N#CN=C=[N-]   not satisfied
8  Cc1ccc(C)cc1 [1,4-dimethylbenzene] + CCCC[N+]1(C)CCCC1.N#CN=C=[N-]       satisfied

###

Test: activity coefficient (dimensionless); of the first substance listed, at infinite dilution; xn = mol fraction of the nth substance listed
Conditions: 373.15 K; 100 kPa; Liquid; Chromatography; x1 = 0
Listing of recorded activity coefficient by entry.
readout.kind: activity coefficient

> print(dat)
                                   compound          readout.kind  quantitative.result
1  C#CCCCC [1-hexyne] + CCCC[N+]1(C)CCCC1.N#CN=C=[N-]  activity coefficient                 4.77
2  CC(C)O [propan-2-ol] + CCCC[N+]1(C)CCCC1.N#CN=C=[N-]  activity coefficient                0.696
3  CCCO [propan-1-ol] + CCCC[N+]1(C)CCCC1.N#CN=C=[N-]  activity coefficient                0.638

###

Assay: activity coefficient (dimensionless); of the first substance listed, at infinite dilution; xn = mol fraction of the nth substance listed
Conditions: 313.15 K; 100 kPa; Liquid; Chromatography; x1 = 0
Just a reminder that ties go to NO: only activity coefficient strictly below 20 counts as YES.

> print(dat)
                                   compound  assigned.label
1  CC#N [acetonitrile] + CCCC[N+]1(C)CCCC1.N#CN=C=[N-]             YES
2  CCC(C)O (centres undefined) [butan-2-ol] + CCCC[N+]1(C)CCCC1.N#CN=C=[N-]             YES
3  CCCO [propan-1-ol] + CCCC[N+]1(C)CCCC1.N#CN=C=[N-]             YES
4  C=CCCCCCCCC [1-decene] + CCCC[N+]1(C)CCCC1.N#CN=C=[N-]              NO
5  CCC=O [propanal] + CCCC[N+]1(C)CCCC1.N#CN=C=[N-]             YES
6  CC(C)O [propan-2-ol] + CCCC[N+]1(C)CCCC1.N#CN=C=[N-]             YES
7  C=CCCCCC [1-heptene] + CCCC[N+]1(C)CCCC1.N#CN=C=[N-]              NO
8  CCOC(C)(C)C [2-ethoxy-2-methylpropane] + CCCC[N+]1(C)CCCC1.N#CN=C=[N-]             YES
9  C=CCCCCCC [oct-1-ene] + CCCC[N+]1(C)CCCC1.N#CN=C=[N-]              NO
